- Assay explanation: chemical genetic growth profiling, strain panel (AID 1159580);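 note: tested at 20 µM; growth read once vehicle control cultures reached saturation at 30 °C; 1 = growth at the plate median or of vehicle wells; lower values mean less growth of the strain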
- Settings: S. cerevisiae deletion strains, growth OD, locus YOL136C, strain PFK27
Out of some 5,500 compounds screened, about 2,000 (36%) were called active. Roughly 18% stayed inconclusive and do not appear here. Cut-off read from the data, not from the text of the source: active = normalized growth mostly below about 0.91 (no sharp cut-off); inconclusive = no clear call, values can overlap the other calls; inactive = mostly above about 0.92. The list shows a part of the results.
API: response.call in t for active, f for inactive

Exercise: Look up the recorded call for O=C(CO/N=C\c1ccc(Cl)cc1Cl)NNC(=S)Nc1cc(Cl)ccc1Cl in this test.
Key: f

Exercise: Look up the recorded call for CC(=O)C(Sc1nc2ccccc2s1)C(C)=O in this test.
Key: f

Exercise: Look up the recorded call for O=S(=O)(Nc1cc(C(F)(F)F)ccc1F)c1cc(C(F)(F)F)ccc1Cl in this test.
Key: f

Exercise: Look up the recorded call for N/C(=N/OC(=O)c1ccc(Cl)cc1)c1ccc(F)cc1F in this test.
Key: t

Exercise: Look up the recorded call for COc1cc(C(=O)Oc2c(Cl)cc(Cl)cc2C=Nc2cccc([N+](=O)[O-])c2)cc(OC)c1OC in this test.
Key: t

Exercise: Look up the recorded call for CC(C)(O)C#Cc1ccc(/C=N\Nc2ccccc2)cc1 in this test.
Key: t

Exercise: Look up the recorded call for N#CC1=C(N)C(C#N)(C#N)C2(CCCCC2)C2CCCC=C12 (stereo not given) in this test.
Key: f

Exercise: Look up the recorded call for CC1(C)C/C(=N/Nc2ccc(C(F)(F)F)cc2)c2cc(C(C)(C)C)c(O)c(O)c2O1 in this test.
Key: t

Exercise: Look up the recorded call for Cc1nc(C(F)(F)F)c(C(=O)O/N=C(/N)c2ccc(Cl)cc2)s1 in this test.
Key: f

Exercise: Look up the recorded call for COc1ccccc1C(C[N+](=O)[O-])c1c(N)n(C)c(=O)n(C)c1=O (stereo not given) in this test.
Key: t

====

- Assay explanation: chemical genetic growth profiling, strain panel (AID 1159580)
- Settings: S. cerevisiae deletion strains, growth OD, locus YKR091W, strain srl3, hits give low values
Screen size: about 5,500 compounds; about 2,000 (36%) were called active. Inconclusive results (about 18%) are left out. The list shows a part of the results.
Would you mind telling me the reported normalized growth of each entry?
# output: bare number, no unit

Recorded result, CC1=CC(=O)CC(C)(C)C1(O)/C=C/C(C)=C\C(=O)O (stereo not given) , normalized growth: 1.02

Recorded result, C[C@](N)(Cc1ccc(O)c(O)c1)C(=O)O , normalized growth: 0.972

Recorded result, O=C(NC(Cc1cc(=O)[nH]c2ccccc12)C(=O)O)c1ccc(Cl)cc1 (stereo not given) , normalized growth: 1

Recorded result, CC1(C)O[C@@H]2[C@@H](CO[C@@]3(COS(N)(=O)=O)OC(C)(C)O[C@@H]23)O1 , normalized growth: 0.999

Recorded result, C[C@](N)(Cc1ccc(O)cc1)C(=O)O , normalized growth: 0.992

Recorded result, CCOC(=O)C1=C[C@]2(CC)CCCN3CCc4c(n1c1ccccc41)[C@@H]32 , normalized growth: 1.01

Recorded result, CCn1cc(C(=O)O)c(=O)c2cnc(N3CCCC3)nc21 , normalized growth: 1

Recorded result, CCn1cc(C(=O)O)c(=O)c2cc3c(cc21)OCO3 , normalized growth: 0.982

Recorded result, COc1ccc(C[C@H](N)C(=O)N[C@@H]2[C@@H](CO)OC(n3cnc4c(N(C)C)ncnc43)[C@@H]2O)cc1 (stereo not given in full) , normalized growth: 1.02

Recorded result, CC[C@]12CCCN3CCc4c(n(c5ccccc45)C(=O)C1)[C@@H]32 , normalized growth: 0.996

====

- Assay explanation: chemical genetic growth profiling, strain panel (AID 1159580);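 note: tested at 20 µM; growth read once vehicle control cultures reached saturation at 30 °C; 1 = growth at the plate median or of vehicle wells; lower values mean less growth of the strain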
- Settings: S. cerevisiae deletion strains, growth OD, locus YDR297W, strain sur2, hits give low values
About 2,000 (36%) of roughly 5,500 compounds were called active. Another 18% or so got no clear call; they are omitted. Some of the results follow.
Would you mind telling me the reported normalized growth of each entry?
# output: bare number, no unit

Recorded result, CC(=O)O[C@H]1C[C@@H](OC(C)=O)C(C)(C)C2C[C@@H](OC(C)=O)[C@]3(C)C(CC[C@@]4(C)[C@H](c5ccoc5)C(=O)[C@H]5O[C@]543)[C@]21C (stereo not given in full) , normalized growth: 0.996

Recorded result, CC[C@]12CCCN3CCc4c(n(c5ccccc45)C(=O)C1)[C@@H]32 , normalized growth: 1.01

Recorded result, CCOC(N)=O , normalized growth: 0.992

Recorded result, CC[C@]1(O)CC2CN(CCc3c([nH]c4ccccc34)[C@@](C(=O)OC)(c3cc4c(cc3OC)N(C=O)[C@H]3[C@@](O)(C(=O)OC)[C@H](OC(C)=O)[C@]5(CC)C=CCN6CC[C@]43[C@@H]65)C2)C1 (stereo not given in full) , normalized growth: 0.982

Recorded result, C[C@H](COc1ccccc1)N[C@H](C)[C@H](O)c1ccc(O)cc1 , normalized growth: 0.99

Recorded result, CCOc1ccc2c(c1)C(C)=CC(C)(C)N2 , normalized growth: 0.989

Recorded result, CC[C@]12CCCN3CCc4c(n(c5ccccc45)[C@](O)(C(=O)OC)C1)[C@@H]32 , normalized growth: 0.99

Recorded result, O=C(O)c1ccc2c(c1)OCO2 , normalized growth: 1.01

Recorded result, CC1(C)O[C@@H]2CC3C4CCC5=CC(=O)C=C[C@]5(C)C4[C@@H](O)C[C@]3(C)[C@]2(C(=O)CO)O1 (stereo not given in full) , normalized growth: 1

Recorded result, O=C1O[C@@H](CO)[C@H](O)[C@@H](O)[C@@H]1O , normalized growth: 1.02

Recorded result, C[C@@H]1CC2C3CCC4=CC(=O)C=C[C@]4(C)[C@@]3(F)[C@@H](O)C[C@]2(C)[C@@]1(O)C(=O)COP(=O)(O)O (stereo not given in full) , normalized growth: 0.979

Recorded result, CCCN(CCC)CCc1cccc2c1CC(=O)N2 , normalized growth: 0.978

Recorded result, COc1ccc(-c2cc(C(F)F)nn2-c2ccc(S(N)(=O)=O)cc2)cc1F , normalized growth: 1.01

Recorded result, CC12CCCC(O)(C1)C1CC(C)(C)C1CC2 (stereo not given) , normalized growth: 0.927

Recorded result, CCOC(=O)C1=C[C@]2(CC)CCCN3CCc4c(n1c1ccccc41)[C@@H]32 , normalized growth: 1.02

Recorded result, CC1(C)CC2C1CCC1(C)OC1CCC2(C)O (stereo not given) , normalized growth: 1.05

Recorded result, C[C@]12CCC3c4ccc(OS(=O)(=O)O)cc4CCC3C1CCC2=O (stereo not given in full) , normalized growth: 1

Recorded result, CS(=O)(=O)OCCCCOS(C)(=O)=O , normalized growth: 1.05

Recorded result, CCOP(=S)(OCC)Oc1ccc2c(C)c(Cl)c(=O)oc2c1 , normalized growth: 0.988

Recorded result, CC(=O)O[C@H]1CC[C@@]2(C)C(=CCC3C2CC[C@]2(C)C(=O)CCC32)C1 (stereo not given in full) , normalized growth: 0.99

====

- Assay explanation: chemical genetic growth profiling, strain panel (AID 1159580);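 note: tested at 20 µM; growth read once vehicle control cultures reached saturation at 30 °C; 1 = growth at the plate median or of vehicle wells; lower values mean less growth of the strain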
- Settings: S. cerevisiae deletion strains, growth OD, locus YNL307C, strain MCK1 (second series), hits give low values
Out of some 5,500 compounds screened, about 2,000 (36%) were called active. About 18% were inconclusive and are not listed. This is one part of the list.
Consider the cut-off 0.9. If the recorded normalized growth is strictly smaller, the label is Yes; if not, the label is No.

Exercise: Problem: For the compound N#CC1=C(N)C(C#N)(C#N)C2(CCCCC2)C2CCCC=C12 (stereo unspecified) , is normalized growth under 0.9?
Key: No

Exercise: Problem: For the compound O=C(CO/N=C\c1ccc(Cl)cc1Cl)NNC(=S)Nc1cc(Cl)ccc1Cl , is normalized growth under 0.9?
Key: No

Exercise: Problem: For the compound CCc1cc2c(cc1-c1csc(C/C(N)=N\O)n1)C(C)(C)CCC2(C)C , is normalized growth under 0.9?
Key: Yes

Exercise: Problem: For the compound COc1ccccc1NC(=O)Nc1nn(C)c2cccc(OC)c12 , is normalized growth under 0.9?
Key: Yes

====

- Assay explanation: chemical genetic growth profiling, strain panel (AID 1159580);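 note: tested at 20 µM; growth read once vehicle control cultures reached saturation at 30 °C; 1 = growth at the plate median or of vehicle wells; lower values mean less growth of the strain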
- Settings: S. cerevisiae deletion strains, growth OD, locus YDL074C, strain BRE1, hits give low values
About 2,000 (36%) of roughly 5,500 compounds were called active. Roughly 18% stayed inconclusive and do not appear here. Some of the results follow.
Would you mind telling me the reported normalized growth of each entry?
# output: bare number, no unit

Recorded result, COc1ccc(C[C@H](N)C(=O)N[C@@H]2[C@@H](CO)OC(n3cnc4c(N(C)C)ncnc43)[C@@H]2O)cc1 (some centres undefined) , normalized growth: 0.988

Recorded result, C=CC1=C(C)/C(=C/c2[nH]c(Cc3[nH]c(/C=C4\NC(=O)C(C)=C4C=C)c(C)c3CCC(=O)O)c(CCC(=O)O)c2C)NC1=O , normalized growth: 1.03

Recorded result, CC1(C)CC2C1CCC1(C)OC1CCC2(C)O (centres undefined) , normalized growth: 1.07

Recorded result, CC1(C)CC2C1CCC1(C)OC2(C)CCC1O (centres undefined) , normalized growth: 1.02

Recorded result, CCCNC(C)C(=O)Nc1ccccc1C (centres undefined) , normalized growth: 1.02

Recorded result, CC(=O)N[C@@H]1[C@@H](C(O)[C@H](O)CO)O[C@](O)(C(=O)O)C[C@@H]1O (some centres undefined) , normalized growth: 1.04

Recorded result, CC12CCCC(O)(C1)C1CC(C)(C)C1CC2 (centres undefined) , normalized growth: 1.03

Recorded result, S=c1[nH]c2ccccc2s1 , normalized growth: 0.975

Recorded result, CO[C@@H]1C[C@@H](C[C@H]2CC[C@H](C)[C@H]([C@@H](C)C(=O)O)O2)O[C@]2(O[C@](C)([C@H]3CC[C@@](C)(C4O[C@@H](C5O[C@@](O)(CO)[C@H](C)C[C@@H]5C)C[C@@H]4C)O3)C[C@H]2C)[C@@H]1C (some centres undefined) , normalized growth: 1.01
